Reference source: patent US20230263822A1

Experiment: Hematology assays in cynomolgus monkeys (Example 45)
Assay type: in vivo
Settings: day −5
Listed next: entries and their corresponding eosinophils.
Enter your answer as a number in %; do not include the unit.

Worked set:
ISIS 416864: MOE gapmer, nucleobases 1275 to 1318 of SEQ ID NO: 1 (Table 8) (antisense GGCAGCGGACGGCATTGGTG; MOE gapmer, wing and gap sizes not given here) : 0.9
ISIS 416850: MOE gapmer, nucleobases 1275 to 1318 of SEQ ID NO: 1 (Table 8) (antisense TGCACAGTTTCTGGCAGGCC; MOE gapmer, wing and gap sizes not given here) : 1.6
ISIS 417002: MOE gapmer, nucleobases 1275 to 1318 of SEQ ID NO: 1 (Table 8) (antisense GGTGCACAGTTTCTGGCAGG; MOE gapmer, wing and gap sizes not given here) : 0.3
ISIS 416838: MOE gapmer, nucleobases 1018 to 1042 of SEQ ID NO: 1 (Table 6) (antisense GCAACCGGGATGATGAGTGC; MOE gapmer, wing and gap sizes not given here) : 0.6

Kindly review the next substance as well.
Looking up ISIS 416858: MOE gapmer, nucleobases 1275 to 1318 of SEQ ID NO: 1 (Table 8) (antisense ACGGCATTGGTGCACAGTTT; MOE gapmer, wing and gap sizes not given here) , I see its eosinophils listed as 1.3

====

Conditions: mouse, in vivo, sc, 50 mg/kg
e = 2'-O-(2-methoxyethyl) (MOE); d = 2'-deoxy (DNA)
Listed next: entries and their corresponding Cholesterol.
Enter your answer as a number in mg/dL; do not include the unit.

Worked set:
ISIS 416866: MOE gapmer, nucleobases 1275 to 1318 of SEQ ID NO: 1 (Table 8) (antisense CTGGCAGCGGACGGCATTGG; MOE gapmer, wing and gap sizes not given here) : 113
ISIS 413482: 5-10-5 MOE gapmer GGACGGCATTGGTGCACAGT (sugars from the 5' end e5 d10 e5, backbone and methylation of C not given here) : 138
ISIS 416848: MOE gapmer, nucleobases 1275 to 1318 of SEQ ID NO: 1 (Table 8) (antisense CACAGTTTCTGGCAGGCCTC; MOE gapmer, wing and gap sizes not given here) : 151

Looking up ISIS 416859: MOE gapmer, nucleobases 1275 to 1318 of SEQ ID NO: 1 (Table 8) (antisense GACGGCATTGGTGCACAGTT; MOE gapmer, wing and gap sizes not given here) , I see its Cholesterol listed as 160

Looking up ISIS 416851: MOE gapmer, nucleobases 1275 to 1318 of SEQ ID NO: 1 (Table 8) (antisense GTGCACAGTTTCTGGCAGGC; MOE gapmer, wing and gap sizes not given here) , I see its Cholesterol listed as 106

====

Assay: Tolerability in Sprague-Dawley rats: body weight and organ weight (Example 44)
Assay type: in vivo
Details: 50 mg/kg s.c. twice per week for 6 weeks
Strand notation (5' to 3'): a small letter for the sugar, then the base; units joined by * are phosphorothioate-linked, units joined directly phosphodiester-linked; [ ] holds rarer units or linkages, { } end groups; capitals alone tell only the bases. e = 2'-O-(2-methoxyethyl) (MOE); [5mC] = 5-methylcytosine; d = 2'-deoxy (DNA)
Listed next: entries and their corresponding body weight.
Enter your answer as a number in g; do not include the unit.

ISIS 449708: 3-8-3, 4-8-4, 2-10-2, 3-10-3 or 4-10-4 MOE microwalk gapmer (Table 46) (antisense eA*e[5mC]*eA*dG*dT*dT*dT*d[5mC]*dT*dG*dG*e[5mC]*eA*eG) : 382
ISIS 449709: 3-8-3, 4-8-4, 2-10-2, 3-10-3 or 4-10-4 MOE microwalk gapmer (Table 46) (antisense eG*e[5mC]*eA*e[5mC]*dA*dG*dT*dT*dT*d[5mC]*dT*dG*dG*d[5mC]*eA*eG*eG*e[5mC]) : 376
ISIS 449711: 3-8-3, 4-8-4, 2-10-2, 3-10-3 or 4-10-4 MOE microwalk gapmer (Table 46) (antisense eA*e[5mC]*dA*dG*dT*dT*dT*d[5mC]*dT*dG*dG*d[5mC]*eA*eG) : 362
ISIS 449707: 3-8-3, 4-8-4, 2-10-2, 3-10-3 or 4-10-4 MOE microwalk gapmer (Table 46) (antisense e[5mC]*eA*e[5mC]*eA*dG*dT*dT*dT*d[5mC]*dT*dG*dG*e[5mC]*eA*eG*eG) : 352

Kindly review the next substance as well.
Looking up ISIS 449710: 3-8-3, 4-8-4, 2-10-2, 3-10-3 or 4-10-4 MOE microwalk gapmer (Table 46) (antisense e[5mC]*eA*e[5mC]*dA*dG*dT*dT*dT*d[5mC]*dT*dG*dG*d[5mC]*eA*eG*eG) , I see its body weight listed as 344

====

Assay: Hematology assays in cynomolgus monkeys (Example 46)
Assay type: in vivo
Conditions: Day 17
Strand notation (5' to 3'): a small letter for the sugar, then the base; units joined by * are phosphorothioate-linked, units joined directly phosphodiester-linked; [ ] holds rarer units or linkages, { } end groups; capitals alone tell only the bases. e = 2'-O-(2-methoxyethyl) (MOE); [5mC] = 5-methylcytosine; d = 2'-deoxy (DNA)
reported-endpoint: hemoglobin content (g/dL)
Enter your answer as a number in g/dL; do not include the unit.

Worked set:
ISIS 449711: 3-8-3, 4-8-4, 2-10-2, 3-10-3 or 4-10-4 MOE microwalk gapmer (Table 46) (antisense eA*e[5mC]*dA*dG*dT*dT*dT*d[5mC]*dT*dG*dG*d[5mC]*eA*eG) : 12.5
ISIS 416858: MOE gapmer, nucleobases 1275 to 1318 of SEQ ID NO: 1 (Table 8) (antisense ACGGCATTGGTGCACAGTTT; MOE gapmer, wing and gap sizes not given here) : 13.0
ISIS 416850: MOE gapmer, nucleobases 1275 to 1318 of SEQ ID NO: 1 (Table 8) (antisense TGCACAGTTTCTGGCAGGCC; MOE gapmer, wing and gap sizes not given here) : 13.3

Looking up ISIS 449707: 3-8-3, 4-8-4, 2-10-2, 3-10-3 or 4-10-4 MOE microwalk gapmer (Table 46) (antisense e[5mC]*eA*e[5mC]*eA*dG*dT*dT*dT*d[5mC]*dT*dG*dG*e[5mC]*eA*eG*eG) , I see its hemoglobin content listed as 12.7

Looking up ISIS 449708: 3-8-3, 4-8-4, 2-10-2, 3-10-3 or 4-10-4 MOE microwalk gapmer (Table 46) (antisense eA*e[5mC]*eA*dG*dT*dT*dT*d[5mC]*dT*dG*dG*e[5mC]*eA*eG) , I see its hemoglobin content listed as 13.5

====

Listed next: entries and their corresponding PT ratio (INR).
Tested on: blood coagulation
Assay: PT and aPTT assay in cynomolgus monkeys (Example 45)
Format: in vivo
Details: day 43; escalating dose regimen; platelet poor plasma
Lab note: write the figure by itself, no unit.

ISIS 416864: MOE gapmer, nucleobases 1275 to 1318 of SEQ ID NO: 1 (Table 8) (antisense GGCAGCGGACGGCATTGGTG; MOE gapmer, wing and gap sizes not given here) : 1.04
ISIS 416858: MOE gapmer, nucleobases 1275 to 1318 of SEQ ID NO: 1 (Table 8) (antisense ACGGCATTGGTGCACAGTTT; MOE gapmer, wing and gap sizes not given here) : 1.08
ISIS 416838: MOE gapmer, nucleobases 1018 to 1042 of SEQ ID NO: 1 (Table 6) (antisense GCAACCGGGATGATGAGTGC; MOE gapmer, wing and gap sizes not given here) : 1.03
ISIS 417002: MOE gapmer, nucleobases 1275 to 1318 of SEQ ID NO: 1 (Table 8) (antisense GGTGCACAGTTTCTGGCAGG; MOE gapmer, wing and gap sizes not given here) : 1.03

Kindly review the next substance as well.
Looking up ISIS 416850: MOE gapmer, nucleobases 1275 to 1318 of SEQ ID NO: 1 (Table 8) (antisense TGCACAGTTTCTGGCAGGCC; MOE gapmer, wing and gap sizes not given here) , I see its PT ratio (INR) listed as 1.01

====

Assay: Tolerability in CD1 mice: organ weight (Example 33)
Assay type: in vivo
Conditions: 50 mg/kg s.c. twice a week, 2 weeks, vs PBS control, normalized to body weight
reported-endpoint: Percent change in liver weight

Worked set:
416999 (antisense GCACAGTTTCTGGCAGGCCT; 2-13-5 gapmer chemistry, further chemistry not given here) [compound 416999] : +13%
417002 (antisense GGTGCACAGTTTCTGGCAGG; 2-13-5 gapmer chemistry, further chemistry not given here) [compound 417002] : +14%

Looking up 416858 (antisense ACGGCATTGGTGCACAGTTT; 5-10-5 gapmer, further chemistry not given here) [compound 416858] , I see its Percent change in liver weight listed as +7%

Looking up 416864 (antisense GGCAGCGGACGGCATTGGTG; 5-10-5 gapmer, further chemistry not given here) [compound 416864] , I see its Percent change in liver weight listed as −2%

Looking up 416892 (antisense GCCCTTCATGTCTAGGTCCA; 3-14-3 chimeric gapmer, further chemistry not given here) [compound 416892] , I see its Percent change in liver weight listed as +35%
